- TARGET_DESC: human TRPV4 (Homo sapiens, UniProt Q9HBA0)
- Construct: expressed in transfected cells; host or cells: BHK/AC9 cells transduced with BacMam virus
- Sequence (Q9HBA0 whole entry): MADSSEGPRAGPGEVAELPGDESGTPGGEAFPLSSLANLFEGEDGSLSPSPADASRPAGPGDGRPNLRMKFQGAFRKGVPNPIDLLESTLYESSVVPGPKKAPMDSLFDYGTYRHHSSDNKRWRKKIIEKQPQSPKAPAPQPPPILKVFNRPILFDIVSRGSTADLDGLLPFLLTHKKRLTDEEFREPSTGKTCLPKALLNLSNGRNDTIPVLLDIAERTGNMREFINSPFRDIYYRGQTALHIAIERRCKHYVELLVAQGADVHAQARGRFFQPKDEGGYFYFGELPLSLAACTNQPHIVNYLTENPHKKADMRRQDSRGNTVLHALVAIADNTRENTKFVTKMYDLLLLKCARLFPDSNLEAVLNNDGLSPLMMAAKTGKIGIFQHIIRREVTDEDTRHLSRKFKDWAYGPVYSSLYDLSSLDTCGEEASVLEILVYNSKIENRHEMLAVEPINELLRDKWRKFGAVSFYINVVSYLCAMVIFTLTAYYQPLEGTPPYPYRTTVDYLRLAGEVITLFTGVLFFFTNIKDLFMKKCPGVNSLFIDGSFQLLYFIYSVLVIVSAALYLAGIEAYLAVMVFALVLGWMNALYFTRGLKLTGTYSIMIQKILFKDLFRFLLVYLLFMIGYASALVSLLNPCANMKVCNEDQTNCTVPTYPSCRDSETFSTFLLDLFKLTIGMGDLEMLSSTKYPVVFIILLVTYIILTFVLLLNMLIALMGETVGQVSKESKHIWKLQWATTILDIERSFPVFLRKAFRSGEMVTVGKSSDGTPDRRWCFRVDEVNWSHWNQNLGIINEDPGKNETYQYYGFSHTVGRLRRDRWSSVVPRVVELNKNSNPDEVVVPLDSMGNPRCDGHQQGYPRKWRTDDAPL
- ASSAY_NAME: FLIPR assay for hTRPV4 expressed in BHK cells: inhibition of Agonist Compound-induced calcium signal
- Format: cell-based
- ASSAY_CONTEXT: hTRPV4 in BHK/AC9 cells, FLIPR calcium signal, agonist at EC80; reported as range class; read-out: IC50
pIC50: −log10 of the molar value.
Quick list: pIC50 per entry.
VALUE_KIND: pIC50

chemical_smiles=N#Cc1cc(Cl)ccc1S(=O)(=O)N1C[C@H](Oc2cc(F)c(F)cc2F)[C@](O)(CO)C1 value_kind=pIC50 meas_value="8.00 to 10.00"
chemical_smiles=C[C@@H](O)[C@]1(O)CN(S(=O)(=O)c2ccc(OC(F)F)nc2)C[C@@H]1Oc1ccc(C#N)c(F)c1 value_kind=pIC50 meas_value="7.00 to 8.00"
chemical_smiles=N#Cc1ccc(O[C@H]2CN(S(=O)(=O)c3ccc(C(F)(F)F)cc3C#N)C[C@@]2(O)CO)cn1 value_kind=pIC50 meas_value="7.00 to 8.00"
chemical_smiles=COc1ccc(O[C@H]2CN(S(=O)(=O)c3ccc(C(F)(F)F)cc3C#N)C[C@@]2(O)CO)cc1F value_kind=pIC50 meas_value="7.00 to 8.00"
chemical_smiles=N#Cc1ccc(O[C@H]2CN(S(=O)(=O)c3ccc(Cl)cc3Cl)C[C@]2(O)CO)cc1F value_kind=pIC50 meas_value="7.00 to 8.00"
chemical_smiles=N#Cc1ccc(O[C@H]2CN(S(=O)(=O)c3cccc(OC(F)F)n3)C[C@@]2(O)CO)cc1F value_kind=pIC50 meas_value="7.00 to 8.00"
chemical_smiles=N#Cc1ccc(O[C@H]2CN(S(=O)(=O)c3ccc(Br)nc3)C[C@@]2(O)CO)cc1F value_kind=pIC50 meas_value="7.00 to 8.00"
chemical_smiles=CCc1ccc(S(=O)(=O)N2C[C@H](Oc3ccc(C#N)c(F)c3)[C@](O)(CO)C2)c(C#N)c1 value_kind=pIC50 meas_value="8.00 to 10.00"
chemical_smiles=N#Cc1ccc(S(=O)(=O)N2C[C@H](Oc3ccc(C#N)c(F)c3)[C@](O)(CO)C2)nc1 value_kind=pIC50 meas_value="7.00 to 8.00"
chemical_smiles=N#Cc1ccc(O[C@H]2CN(S(=O)(=O)c3cccnc3OC(F)F)C[C@@]2(O)CO)cc1F value_kind=pIC50 meas_value="8.00 to 10.00"
chemical_smiles=C[C@@H](O)[C@]1(O)CN(S(=O)(=O)c2ccc(OC(F)(F)F)nc2)C[C@@H]1Oc1ccc(C#N)c(F)c1 value_kind=pIC50 meas_value="7.00 to 8.00"
chemical_smiles=N#Cc1ccc(O[C@H]2CN(S(=O)(=O)c3c(Cl)nc4sccn34)C[C@@]2(O)CO)cc1F value_kind=pIC50 meas_value="7.00 to 8.00"
chemical_smiles=N#Cc1cc(Cl)ccc1S(=O)(=O)N1C[C@H](Oc2ccc(Cl)cc2)[C@@](O)(CO)C1 value_kind=pIC50 meas_value="8.00 to 10.00"
chemical_smiles=N#Cc1cc(C(F)(F)F)ccc1S(=O)(=O)N1C[C@H](Oc2ccc(F)c(C(F)(F)F)c2)[C@](O)(CO)C1 value_kind=pIC50 meas_value="7.00 to 8.00"
chemical_smiles=COc1cc(C#N)ccc1S(=O)(=O)N1C[C@H](Oc2ccc(C#N)c(F)c2)[C@](O)(CO)C1 value_kind=pIC50 meas_value="7.00 to 8.00"
chemical_smiles=CC#Cc1ccc(S(=O)(=O)N2C[C@H](Oc3ccc(C#N)c(F)c3)[C@](O)(CO)C2)c(C#N)c1 value_kind=pIC50 meas_value="8.00 to 10.00"
chemical_smiles=N#Cc1ccc(S(=O)(=O)N2C[C@H](Oc3ccc(C#N)c(F)c3)[C@](O)(CO)C2)c(Cl)c1 value_kind=pIC50 meas_value="8.00 to 10.00"
chemical_smiles=N#Cc1cc(C(F)(F)F)ccc1S(=O)(=O)N1C[C@H](Oc2ccc(F)c(Cl)c2)[C@](O)(CO)C1 value_kind=pIC50 meas_value="7.00 to 8.00"
chemical_smiles=N#Cc1ccc(O[C@H]2CN(S(=O)(=O)c3ccc(C(F)(F)F)cc3Cl)C[C@@]2(O)CO)cc1 value_kind=pIC50 meas_value="7.00 to 8.00"
chemical_smiles=N#CCc1ccc(O[C@H]2CN(S(=O)(=O)c3ccc(C(F)(F)F)cc3C#N)C[C@@]2(O)CO)cc1 value_kind=pIC50 meas_value="7.00 to 8.00"
chemical_smiles=Cc1cc(C(F)(F)F)ccc1S(=O)(=O)N1C[C@H](Oc2ccc(C#N)c(F)c2)[C@](O)(CO)C1 value_kind=pIC50 meas_value="7.00 to 8.00"
chemical_smiles=N#Cc1ccc(O[C@H]2CN(S(=O)(=O)c3ccc(I)cc3)C[C@@]2(O)CO)cc1F value_kind=pIC50 meas_value="7.00 to 8.00"
chemical_smiles=N#Cc1ccc(O[C@H]2CN(S(=O)(=O)c3ccc(C(F)(F)F)cc3C#N)C[C@@]2(O)CO)cc1F value_kind=pIC50 meas_value="8.00 to 10.00"
chemical_smiles=N#Cc1ccc(S(=O)(=O)N2C[C@H](Oc3ccc(C#N)c(F)c3)[C@@](O)(CO)C2)c(Cl)c1 value_kind=pIC50 meas_value="7.00 to 8.00"
chemical_smiles=N#Cc1ccc(O[C@H]2CN(S(=O)(=O)c3cnc(C(F)(F)F)nc3)C[C@@]2(O)CO)cc1F value_kind=pIC50 meas_value="6.00 to 7.00"
chemical_smiles=N#Cc1ncc(O[C@H]2CN(S(=O)(=O)c3ccc(C(F)(F)F)cc3C#N)C[C@@]2(O)CO)cn1 value_kind=pIC50 meas_value="7.00 to 8.00"
chemical_smiles=N#Cc1ccc(O[C@H]2CN(S(=O)(=O)c3ccc(Br)cc3C(F)(F)F)C[C@@]2(O)CO)cc1F value_kind=pIC50 meas_value="7.00 to 8.00"
chemical_smiles=N#Cc1cc(C(F)(F)F)ccc1S(=O)(=O)N1C[C@H](Oc2ccc(C(F)(F)F)nc2)[C@](O)(CO)C1 value_kind=pIC50 meas_value="7.00 to 8.00"
chemical_smiles=N#Cc1ccc(O[C@H]2CN(S(=O)(=O)c3ccc(C(F)(F)F)c(F)c3)C[C@@]2(O)CO)cc1F value_kind=pIC50 meas_value="7.00 to 8.00"
